# assayedTarget: human α7 nAChR (Homo sapiens)
# Construct: expressed in transfected cells; host or cells: mouse neuroblastoma Neuro2a, transient co-transfection with Ric-3 (Ric3-pCMV6-XL5, OriGene) and the calcium sensor Case12
# protocol: Calcium fluorescence assay on α7 nAChR expressed in Neuro2a cells, in the presence of PNU120596
# Type: cell-based
observable: EC50

Lab note: "COC(=O)[C@@H](Cc1c[nH]c2cc(I)ccc12)[N+](C)(C)C" gave EC50 of 610 nM

---

# assayedTarget: human α7 nAChR (Homo sapiens, UniProt P36544)
# Construct: expressed in transfected cells; host or cells: mouse neuroblastoma Neuro2a, transient co-transfection with Ric-3 (Ric3-pCMV6-XL5, OriGene) and the calcium sensor Case12
# Sequence (P36544 23-502): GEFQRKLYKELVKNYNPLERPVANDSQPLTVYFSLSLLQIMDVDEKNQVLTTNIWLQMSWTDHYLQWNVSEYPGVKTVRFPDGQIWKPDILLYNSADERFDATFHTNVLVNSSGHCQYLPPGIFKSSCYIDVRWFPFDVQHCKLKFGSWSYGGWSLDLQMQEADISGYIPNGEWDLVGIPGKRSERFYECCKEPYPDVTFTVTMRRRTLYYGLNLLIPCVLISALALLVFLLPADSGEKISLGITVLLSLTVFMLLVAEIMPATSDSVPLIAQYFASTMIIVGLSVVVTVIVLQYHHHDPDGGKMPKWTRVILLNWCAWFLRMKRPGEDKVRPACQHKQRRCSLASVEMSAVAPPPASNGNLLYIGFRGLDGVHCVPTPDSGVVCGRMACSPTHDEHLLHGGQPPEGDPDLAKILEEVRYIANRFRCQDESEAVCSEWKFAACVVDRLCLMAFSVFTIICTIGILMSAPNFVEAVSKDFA
# protocol: Calcium fluorescence assay on α7 nAChR expressed in Neuro2a cells, in the presence of PNU120596
# Type: cell-based
# setupConditions: human α7 nAChR in Neuro2a cells, PNU120596 10 μM present; read-out: EC50
observable: EC50 (µM)
Answer in µM, number only, no unit symbol.

Below are worked cases with known answers.
Lab note: COC(=O)[C@H](Cc1c[nH]c2ccccc12)[N+](C)(C)C [Compound 4, methyl ester of L-hypaphorine] gave EC50 of 27

Lab note: COC(=O)C(Cc1c[nH]c2cc([N+](=O)[O-])ccc12)[N+](C)(C)C (stereo not drawn) [Compound 5, methyl ester of 6-nitrohypaphorine] gave EC50 of 14

Others:
Lab note: COC(=O)[C@@H](Cc1c[nH]c2cc(C(F)(F)F)ccc12)[N+](C)(C)C [Compound 15] gave EC50 of 5.14

---

# assayedTarget: human α3-containing nAChRs (Homo sapiens, UniProt P32297)
# Construct: endogenous in cells
# Sequence (P32297 32-505): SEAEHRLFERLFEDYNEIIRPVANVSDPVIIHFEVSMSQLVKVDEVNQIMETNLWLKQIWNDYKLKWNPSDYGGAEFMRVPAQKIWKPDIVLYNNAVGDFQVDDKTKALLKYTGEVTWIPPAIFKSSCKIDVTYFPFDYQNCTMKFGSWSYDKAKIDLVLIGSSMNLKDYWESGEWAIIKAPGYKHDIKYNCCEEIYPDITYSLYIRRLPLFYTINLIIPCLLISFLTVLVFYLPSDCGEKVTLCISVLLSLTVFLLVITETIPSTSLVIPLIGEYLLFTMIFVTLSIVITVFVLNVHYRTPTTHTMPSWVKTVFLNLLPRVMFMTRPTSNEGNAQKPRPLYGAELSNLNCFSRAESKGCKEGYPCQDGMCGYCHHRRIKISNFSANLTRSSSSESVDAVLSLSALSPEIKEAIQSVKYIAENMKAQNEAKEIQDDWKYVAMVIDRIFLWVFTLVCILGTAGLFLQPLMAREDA
# protocol: Calcium imaging of α3-containing nAChRs in SH-SY5Y cells (nicotine-induced calcium rise)
# setupConditions: inhibition of nicotine (100 μM)-induced calcium rise
observable: IC50 (µM)
Answer in µM, number only, no unit symbol.

Lab note: "COC(=O)[C@@H](Cc1c[nH]c2cc(I)ccc12)[N+](C)(C)C" gave IC50 of 4.4

Moving on to the next compound.
Lab note: "COC(=O)[C@@H](Cc1c[nH]c2cc(C(F)(F)F)ccc12)[N+](C)(C)C" gave IC50 of 2.4
